Ref: PubChem BioAssay (EPA / NIEHS)

test system: SRY-box transcription factor 2 (SOX2) Protein Expression, Deisenroth Lab, SOX2 (gene 6657); test: CCTE_Deisenroth_DEVTOX-GLR_legacy_Sox2: (Legacy) CCTE's DevTox GLR-Endo Assay Evaluation of SRY-box transcription factor 2 (SOX2) Protein Expression, Deisenroth Lab (AID 2284346)
Calls of active or inactive are those of the source. How the source made its calls: active means hit-call score of the fitted dose curve at least 0.9, where 1 is the maximum; inactive means score below 0.9.
// allowed return values: active, inactive

Check out these entries, answers already filled in.
SMILES_DATA: CC/C(=C(/CC)c1ccc(O)cc1)c1ccc(O)cc1
LABEL: active
--
SMILES_DATA: CCCCOC(=O)c1ccc(O)cc1
LABEL: active
--
SMILES_DATA: CO[C@H]1/C=C/O[C@@]2(C)Oc3c(C)c(O)c4c(O)c(c(/C=N/N5CCN(C)CC5)c(O)c4c3C2=O)NC(=O)/C(C)=C\C=C\[C@H](C)[C@H](O)[C@@H](C)[C@@H](O)[C@@H](C)[C@H](OC(C)=O)[C@@H]1C
LABEL: inactive

Could you now consider this next molecule?
What did the test return for OCCO ?
inactive
